Entries annotated with measured melting point

CCCC1(C(=O)Oc2ccc(C(=O)O)cc2)CC2=C(C1)C(C)(C)CCC2(C)C 156 to 157 °C
CCCCC1(C(=O)Oc2ccc(C(=O)O)cc2)CC2=C(C1)C(C)(C)CCC2(C)C 172 to 173 °C
CC1(C)CCC(C)(C)C2=C1CC(Cc1ccccc1)(C(=O)Oc1ccc(C(=O)O)cc1)C2 183 to 184 °C

Moving on to another compound below.
Need melting point, item CC1(C)CCC(C)(C)C2=C1CC(CCc1ccccc1)(C(=O)Oc1ccc(C(=O)O)cc1)C2
182 to 183 °C

###

Measured metric: melting point

Some compounds with known melting point results, for comparison:
CC(C)CC1(C(=O)Oc2ccc(C(=O)O)cc2)CC2=C(C1)C(C)(C)CCC2(C)C 194 to 196 °C
CCCCCC1(C(=O)Oc2ccc(C(=O)O)cc2)CC2=C(C1)C(C)(C)CCC2(C)C 156 to 158 °C
CCC1(C(=O)Oc2ccc(C(=O)O)cc2)CC2=C(C1)C(C)(C)CCC2(C)C 175 to 176 °C
CC1(C)CCC(C)(C)C2=C1CC(C)(C(=O)Oc1ccc(C(=O)O)cc1)C2 205 to 206 °C

Now turn to the next compound.
Looking for the measured melting point of CCCCCCC1(C(=O)Oc2ccc(C(=O)O)cc2)CC2=C(C1)C(C)(C)CCC2(C)C , can you help?
149 to 150 °C
